// data source = patent US20220259289A1

- systemName: T1, human serum albumin (human, UniProt P02768 25-609)
- T1 construct: Negative control of the ELISA; also called HSA
- T1 sequence (P02768 25-609 limits assumed): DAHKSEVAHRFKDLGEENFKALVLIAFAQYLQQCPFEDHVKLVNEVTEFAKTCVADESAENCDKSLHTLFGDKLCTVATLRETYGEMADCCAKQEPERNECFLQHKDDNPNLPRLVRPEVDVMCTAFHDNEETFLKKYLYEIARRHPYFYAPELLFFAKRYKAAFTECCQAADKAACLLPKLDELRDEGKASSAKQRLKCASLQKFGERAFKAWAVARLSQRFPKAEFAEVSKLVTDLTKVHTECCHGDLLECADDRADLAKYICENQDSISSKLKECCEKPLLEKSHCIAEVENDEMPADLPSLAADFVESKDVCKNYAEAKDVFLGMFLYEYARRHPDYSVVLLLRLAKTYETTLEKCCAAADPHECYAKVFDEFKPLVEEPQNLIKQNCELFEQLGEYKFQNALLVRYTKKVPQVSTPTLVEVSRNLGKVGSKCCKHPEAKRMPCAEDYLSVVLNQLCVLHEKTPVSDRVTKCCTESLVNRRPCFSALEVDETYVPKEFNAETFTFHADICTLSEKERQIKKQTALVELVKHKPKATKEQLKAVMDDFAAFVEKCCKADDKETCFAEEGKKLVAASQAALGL
- assayInfo: ELISA, negative control HSA
Listed binders paired with reported ELISA HSA (RLU)
propertyMeasured: ELISA HSA (RLU)

binder="ISOP193AR9P1F4 (designed binder, not shown: small tags and cut ends) LPAPKNLVVSRVTEDSARLSWLEQEQFVNHFDSFLIQYQESEKVGEAIVLTVPGSERSYDLTGLKPGTEYTVSIYGVQYVDGFFKSNPLSAIFTT" assayresult=720
binder="ISOP193ER9P1F9 (designed binder, not shown: small tags and cut ends) LPAPKNLVVSRVTEDSARLSWTAPDAAFDSFHIYYGEHYNLGEAIVLTVPGSERSYDLTGLKPGTEYLVTIYGVKGGFWSTPLSAIFTT" assayresult=400
